recorded.endpoint: melting point

{"structure.as.smiles": "CC(=O)c1cc2c(cc1F)c(C#N)c(-c1ccc(S(=O)(=O)N[C@@H](C)C(F)(F)F)cn1)n2-c1ncccn1", "recorded.endpoint": "melting point", "result": "220 to 221 °C"}
{"structure.as.smiles": "CC(C)NS(=O)(=O)c1cnc(-c2c(C#N)c3ccc(F)cc3n2CC2CC2)nc1", "recorded.endpoint": "melting point", "result": "218 to 219 °C"}
{"structure.as.smiles": "N#Cc1c(-c2ncc(S(=O)(=O)NC(CF)CF)cn2)n(C2CCC2)c2cc(CF)ccc12", "recorded.endpoint": "melting point", "result": "226 to 232 °C"}

Requested read-out: melting point. Entry: C[C@H](NS(=O)(=O)c1cnc(-c2c(C#N)c3ccc(Cl)cc3n2C2CCCCC2)nc1)C(F)(F)F
215 to 220 °C

* * *

Provide the recorded melting point for the entries that follow.

{"structure.as.smiles": "N#Cc1c(-c2ccc(NS(=O)(=O)C3CC3)cn2)n(C2CCCCC2)c2ccc(Cl)cc12", "recorded.endpoint": "melting point", "result": "230 to 235 °C"}

# batch size: 6; output melting point per entry
1. CC(C)NS(=O)(=O)c1ccc(-c2c(C#N)c3cc(F)ccc3n2-c2ccccn2)nc1
2. CCc1ccc2c(C#N)c(-c3ccc(S(=O)(=O)N[C@H](C)C(F)(F)F)cn3)n(C3CCCC3)c2c1
3. Cc1cc2c(cc1F)c(C(N)=O)c(-c1ccc(S(=O)(=O)N[C@@H](C)C(F)(F)F)cn1)n2-c1cnccn1
4. CCCn1c(-c2ccc(S(=O)(=O)N[C@H](C)C(F)(F)F)cn2)c(C#N)c2ccc(F)cc21
5. N#Cc1c(-c2ccc(S(=O)(=O)NC(CF)CF)cn2)n(-c2ccccn2)c2ccc(F)cc12
6. C[C@H](NS(=O)(=O)c1ccc(-c2c(C#N)c3ccc(OC(F)F)cc3n2-c2ccccn2)nc1)C(F)(F)F

1. 208 to 210 °C
2. 185 to 186 °C
3. 162 to 169 °C
4. 195 to 197 °C
5. 170 to 172 °C
6. 199 to 203 °C

# batch size: 3; output melting point per entry
1. Cc1ccc2c(C#N)c(-c3ncc(S(=O)(=O)NC(CF)CF)cn3)n(C3CCCC3)c2c1
2. CCc1ccc2c(C#N)c(-c3ccc(S(=O)(=O)N[C@@H](C)C(F)(F)F)cn3)n(C3CCC3)c2c1
3. Cc1ccc2c(c1)c(C#N)c(-c1ccc(S(=O)(=O)N[C@@H](C)C(F)(F)F)cn1)n2-c1ncccc1F

1: 229 to 231 °C; 2: 198 to 199 °C; 3: 216 to 220 °C

# batch size: 4; output melting point per entry
1. Cc1cc2c(cc1F)c(C#N)c(-c1ccc(S(=O)(=O)N[C@@H](C)C(F)(F)F)cn1)n2-c1cccnn1
2. Cc1ccc2c(c1)c(C#N)c(-c1ccc(S(=O)(=O)NC3(C(F)(F)F)CC3)cn1)n2C1CCC1
3. N#Cc1c(-c2ccc(S(=O)(=O)NC(CF)CF)cn2)n(CC2CC2)c2cc(F)ccc12
4. CC[C@H](NS(=O)(=O)c1ccc(-c2c(C#N)c3cc(F)c(C)cc3n2C2CCCC2)nc1)C(F)(F)F

1: 245 to 250 °C; 2: 193 to 199 °C; 3: 188 to 190 °C; 4: 201 to 207 °C

Requested read-out: melting point. Entry: CC(C)(NS(=O)(=O)c1ccc(-c2c(C#N)c3cc(F)ccc3n2-c2ncccn2)nc1)C(F)(F)F
231 to 234 °C

* * *

Provide the recorded melting point for the entries that follow.

Sample answers from the record:
{"structure.as.smiles": "Cc1cc2c(cc1F)c(C#N)c(-c1ccc(S(=O)(=O)NC3(C(F)(F)F)CC3)cn1)n2C1CCC1", "recorded.endpoint": "melting point", "result": "223 to 232 °C"}
{"structure.as.smiles": "COc1ccc2c(C#N)c(-c3ncc(S(=O)(=O)N[C@@H](C)C(F)(F)F)cn3)n(C3CCCC3)c2c1", "recorded.endpoint": "melting point", "result": "211 to 212 °C"}
{"structure.as.smiles": "CC(C)NS(=O)(=O)c1cnc(-c2c(C#N)c3ccc(C4CCC4)cc3n2C2CCC2)nc1", "recorded.endpoint": "melting point", "result": "192 to 194 °C"}

# batch size: 4; output melting point per entry
1. CCc1cc2c(cc1F)c(C#N)c(-c1ccc(S(=O)(=O)N[C@@H](C)C(F)(F)F)c(C)n1)n2-c1ncccn1
2. CC(C)(NS(=O)(=O)c1ccc(-c2c(C#N)c3ccc(OC(F)F)cc3n2-c2ccccc2)nc1)C(F)(F)F
3. Cc1cc2c(cc1F)c(C#N)c(-c1ccc(S(=O)(=O)N[C@@H](C)C(F)(F)F)cn1)n2C1CCC1
4. CCc1cc2c(cc1F)c(C#N)c(-c1ccc(S(=O)(=O)N[C@@H](C)C(F)(F)F)cn1)n2-c1ncccc1Cl

1. 258 to 262 °C
2. 218 to 220 °C
3. 218 to 219 °C
4. 200 to 208 °C

# batch size: 6; output melting point per entry
1. C[C@@H](NS(=O)(=O)c1ccc(-c2c(C(N)=O)c3cc(F)c(C4CC4)cc3n2C2CCCC2)nc1)C(F)(F)F
2. CCc1cc2c(cc1F)c(C(N)=O)c(-c1ccc(S(=O)(=O)N[C@@H](C)C(F)(F)F)cn1)n2-c1ccc(F)cn1
3. Cc1cccc(-n2c(-c3ccc(S(=O)(=O)N[C@@H](C)C(F)(F)F)cn3)c(C#N)c3cc(F)c(C)cc32)n1
4. Cc1cc2c(cc1Cl)c(C(N)=O)c(-c1ncc(S(=O)(=O)N[C@@H](C)C(F)(F)F)cn1)n2C1CCC1
5. C[C@H](NS(=O)(=O)c1ccc(-c2c(C#N)c3ccc(C(F)(F)F)cc3n2-c2cnccn2)nc1)C(F)(F)F
6. Cc1cc2c(cc1F)c(C#N)c(-c1ccc(S(=O)(=O)N[C@@H](C)C(F)(F)F)cn1)n2-c1ccsc1

233 to 234 °C
200 to 204 °C
219 to 225 °C
171 to 173 °C
208 to 213 °C
196 to 203 °C

Requested read-out: melting point. Entry: C[C@H](NS(=O)(=O)c1ccc(-c2c(C#N)c3cc(F)c(OC(F)F)cc3n2C2CCCC2)nc1)C(F)(F)F
181 to 184 °C

* * *

Provide the recorded melting point for the entries that follow.

{"compound": "C[C@H](NS(=O)(=O)c1cnc(-c2c(C(N)=O)c3ccc(OC(F)F)cc3n2C2CCCCC2)nc1)C(F)(F)F [compound 746]", "result": "217 to 219 °C"}

# batch size: 6; output melting point per entry
1. C[C@H](NS(=O)(=O)c1ccc(-c2c(C#N)c3ccc(C(F)(F)F)cc3n2-c2ccccn2)nc1)C(F)(F)F [compound 952]
2. Cc1ccc2c(C#N)c(-c3ncc(S(=O)(=O)NC(CF)CF)cn3)n(C3CCCCC3)c2c1 [compound 241]
3. N#Cc1c(-c2ccc(S(=O)(=O)NC(CF)CF)cn2)n(C2CCCCC2)c2cc(F)ccc12 [compound 234]
4. CC(C)(C)NS(=O)(=O)c1ccc(-c2c(C#N)c3cc(F)c(O)cc3n2C2CCC2)nc1 [compound 719]
5. CC(C)NS(=O)(=O)c1ccc(-c2c(C#N)c3ccc(OC(F)(F)F)cc3n2C(C)C)nc1 [compound 12]
6. CC(C)NS(=O)(=O)c1ccc(-c2c(C#N)c3cc(OC(F)F)ccc3n2C2CCC2)nc1 [compound 19]

1. 173 to 176 °C
2. 225 to 230 °C
3. 193 to 199 °C
4. 242 to 245 °C
5. 160 to 162 °C
6. 148 to 153 °C

* * *

Provide the recorded melting point for the entries that follow.

{"structure.as.smiles": "Cc1ccc2c(C#N)c(-c3ccc(S(=O)(=O)N[C@@H](C)C(F)(F)F)cn3)n(C3CCC3)c2c1", "recorded.endpoint": "melting point", "result": "203 to 208 °C"}
{"structure.as.smiles": "CCc1cc2c(cc1F)c(C#N)c(-c1ccc(S(=O)(=O)NC(C)(C)C)cn1)n2-c1ncccn1", "recorded.endpoint": "melting point", "result": "208 to 210 °C"}
{"structure.as.smiles": "Cc1cc2c(cc1F)c(C#N)c(-c1ccc(S(=O)(=O)NC(C)(C)C(F)(F)F)cn1)n2C1CCCCC1", "recorded.endpoint": "melting point", "result": "248 to 254 °C"}
{"structure.as.smiles": "C[C@H](NS(=O)(=O)c1ccc(-c2c(C#N)c3c(F)cc(OC(F)F)cc3n2C2CCC2)nc1)C(F)(F)F", "recorded.endpoint": "melting point", "result": "210 to 212 °C"}
{"structure.as.smiles": "Cc1cc2c(cc1F)c(C#N)c(-c1ccc(S(=O)(=O)N[C@@H](C)C(F)(F)F)cn1)n2-c1cscc1C", "recorded.endpoint": "melting point", "result": "223.2 to 227.1 °C"}
{"structure.as.smiles": "CCc1cc2c(cc1F)c(C#N)c(-c1ccc(S(=O)(=O)N[C@@H](C)C(F)(F)F)cn1)n2-c1cccc(C(F)(F)F)c1", "recorded.endpoint": "melting point", "result": "240 to 245 °C"}

Alright, here's another molecule for you.
Requested read-out: melting point. Entry: C[C@@H](NS(=O)(=O)c1ccc(-c2c(C#N)c3ccc(C4CC4)cc3n2C2CCC2)nc1)C(F)(F)F
192 to 196 °C
